Would you kindly list IC50 for each of these molecules?
biological target: AKT1 (Homo sapiens, UniProt P31749, S473D); test: Determination of the IC50 for AKT1 (HTRF); settings: AKT1 without PH domain, activated by PDK1
Sequence (P31749 118-480 S473D limits assumed): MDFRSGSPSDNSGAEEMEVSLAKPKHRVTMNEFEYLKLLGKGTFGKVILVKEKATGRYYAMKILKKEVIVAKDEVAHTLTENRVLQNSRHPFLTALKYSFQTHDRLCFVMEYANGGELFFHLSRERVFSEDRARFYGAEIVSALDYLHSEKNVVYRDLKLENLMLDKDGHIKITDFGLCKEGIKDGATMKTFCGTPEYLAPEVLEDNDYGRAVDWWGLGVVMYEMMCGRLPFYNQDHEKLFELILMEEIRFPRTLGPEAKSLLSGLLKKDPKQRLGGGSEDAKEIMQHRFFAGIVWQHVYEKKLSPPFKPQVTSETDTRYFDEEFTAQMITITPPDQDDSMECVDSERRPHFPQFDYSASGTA

## Task Answer with the recorded IC50 of CN1CCCCC1C(NC(=O)Nc1ccc2[nH]nc(-c3ccccn3)c2c1)c1ccccc1 (stereo not shown) [Ex 15] only.
## Result 100 to 500 nM

## Task Answer with the recorded IC50 of O=C(Nc1ccc2[nH]ncc2c1)O[C@@H](c1cccc(C(F)(F)F)c1)[C@@H]1CCCCN1 [Ex 44] only.
## Result < 100 nM

## Task Answer with the recorded IC50 of CN1CCCCC1C(NC(=O)Nc1ccc2[nH]nc(-c3cccnc3)c2c1)c1ccccc1 (stereo not shown) [Ex 14] only.
## Result < 100 nM

Next, consider the following molecule.
## Task Answer with the recorded IC50 of CN1CCCCC1C(NC(=O)Nc1ccc2[nH]nc(C#Cc3cccnc3)c2c1)c1ccccc1 (stereo not shown) [Ex 25] only.
## Result < 100 nM
